Would you kindly list Velvetleaf plant response rating for each of these molecules?
# Test system: velvetleaf
# Experimental Protocol: Test A pre-/postemergence greenhouse test
# Type: in vivo, Abutilon theophrasti
# Particulars: Preemergence, 125 g ai/ha; 0 to 100 scale, 0 no effect, 100 complete control
Give bare numbers.

| Molecule | Velvetleaf plant response rating |
| --- | --- |
| Cc1cc[n+]([O-])c(S(=O)(=O)C(C)c2c(C(F)(F)F)nn(C)c2OC(F)F)c1 (stereo not shown) [Compound 11] | 80 |
| Cn1nc(C(F)(F)F)c(CS(=O)(=O)c2cccc[n+]2[O-])c1OCC(F)F [Compound 81] | 10 |
| Cc1cc[n+]([O-])c(S(=O)(=O)Cc2c(C(F)(F)F)nn(CC(F)(F)F)c2Cl)c1 [Compound 49] | 0 |
| Cc1cc[n+]([O-])c(S(=O)(=O)C(Cl)c2c(C(F)(F)F)nn(C)c2OCC(F)(F)F)c1 (racemic) [Compound 37] | 40 |
| Cn1nc(C(F)(F)F)c(C[S+]([O-])c2cccc[n+]2[O-])c1OCC(F)(F)F (racemic) [Compound 28] | 80 |
| Cn1nc(C(F)(F)F)c(C(Cl)S(=O)(=O)c2ccc(Cl)c[n+]2[O-])c1Cl (racemic) [Compound 21] | 0 |

Query: For the molecule Cn1nc(C(F)(F)F)c(C[S+]([O-])c2cc(C(F)(F)F)cc[n+]2[O-])c1Cl (racemic) [Compound 34] , report Velvetleaf plant response rating.
Response: 30

* * *

# System: woolly cupgrass
# Experimental Protocol: Test C pre-/postemergence test
# Format: in vivo, Eriochloa villosa
# Particulars: Postemergence, 250 g ai/ha; scale 0 to 100, 0 no effect, 100 complete control
# From the text: Seeds of plant species selected from blackgrass (Alopecurus myosuroides), downy brome (Bromus tectorum), green foxtail (Setaria viridis), Italian ryegrass (Lolium multiflorum), wheat (Triticum aestivum), wild oat (Avena fatua), catchweed bedstraw (Galium aparine), Russian thistle (Salsola kali), […] […]
Measured Attribute: Plant response rating, Cupgrass, Woolly
Answers are plain numbers.

Would you please look over these solved cases?
| Compound | Plant response rating, Cupgrass, Woolly |
| --- | --- |
| CC(c1c(C(F)(F)F)nn(C)c1OC(F)F)S(=O)(=O)c1cccc[n+]1[O-] (stereo not drawn) | 50 |
| CC(Oc1c(CS(=O)(=O)c2cccc[n+]2[O-])c(C(F)(F)F)nn1C)C(F)(F)F (stereo not drawn) | 50 |
| CCn1nc(C(F)(F)F)c(C(C)S(=O)(=O)c2cccc[n+]2[O-])c1OCC(F)(F)F (stereo not drawn) | 0 |
| Cn1nc(C(F)(F)C(F)(F)F)c(C[S+]([O-])c2cccc[n+]2[O-])c1OCC(F)(F)F (stereo not drawn) | 50 |
| CC(c1c(C(F)(F)F)nn(C)c1Cl)S(=O)(=O)c1ccc(Cl)c[n+]1[O-] (racemic) | 0 |

Next up:
Query: GET Plant response rating, Cupgrass, Woolly where system = woolly cupgrass and item = Cn1nc(C(F)(F)F)c(C[S+]([O-])c2ccc(Cl)c[n+]2[O-])c1OCC(F)(F)F (racemic)
Response: 50

* * *

Hi there, I'd appreciate the recorded Plant response rating, Goosegrass for every entry that follows.
# Test system: Goosegrass
# Experimental Protocol: Test C pre-/postemergence test
# Type: in vivo, Eleusin indica
# Particulars: Preemergence, 31 g ai/ha; scale 0 to 100 (0 no effect, 100 complete control)
Answers are plain numbers.

| Compound | Plant response rating, Goosegrass |
| --- | --- |
| Cn1nc(C(F)(F)F)c(C[S+]([O-])c2ccc(F)c[n+]2[O-])c1Cl (stereo not drawn) [Compound 54] | 95 |
| Cn1nc(C(F)(F)C(F)(F)F)c(C[S+]([O-])c2cccc[n+]2[O-])c1OCC(F)(F)F (stereo not drawn) [Compound 79] | 70 |
| Cc1cc[n+]([O-])c(S(=O)(=O)C(Cl)c2c(C(F)(F)F)nn(C)c2Cl)c1 (racemic) [Compound 22] | 100 |
| CC(c1c(C(F)(F)F)nn(C)c1OC(F)F)S(=O)(=O)c1cc(C(C)(C)C)cc[n+]1[O-] (racemic) [Compound 26] | 90 |
| CC(Oc1c(C[S+]([O-])c2cccc[n+]2[O-])c(C(F)(F)F)nn1C)C(F)(F)F (stereo not drawn) [Compound 77] | 95 |
| Cn1nc(C(F)(F)F)c(CS(=O)(=O)c2cc(C(C)(C)C)cc[n+]2[O-])c1OC(F)F [Compound 25] | 100 |
| CC(c1c(C(F)(F)F)nn(CC(F)(F)F)c1Cl)[S+]([O-])c1cccc[n+]1[O-] (stereo not drawn) [Compound 46] | 98 |
| CCc1cc[n+]([O-])c(S(=O)(=O)Cc2c(C(F)(F)F)nn(C)c2OCC(F)(F)F)c1 [Compound 60] | 100 |

I need Plant response rating, Goosegrass for every entry listed below, if you could help.
1. [O-][n+]1cc(Cl)ccc1[S+]([O-])Cc1c(C(F)(F)F)nn(CC(F)(F)F)c1Cl (stereo not drawn) [Compound 47]
2. CCn1nc(C(F)(F)F)c(CS(=O)(=O)c2cccc[n+]2[O-])c1OCC(F)(F)F [Compound 63]
3. Cn1nc(C(F)(F)F)c(C[S+]([O-])c2ccc(F)c[n+]2[O-])c1OC(F)F (stereo not drawn) [Compound 58]
4. Cn1nc(C(F)(F)F)c(C[S+]([O-])c2ccc(Cl)c[n+]2[O-])c1OCC(F)(F)F (racemic) [Compound 62]

Response:
[98, 100, 80, 100]

Hi! Can you tell me Plant response rating, Goosegrass for each of these compounds?
1. Cn1nc(C(F)(F)F)c(C[S+]([O-])c2ccc(F)c[n+]2[O-])c1OCC(F)(F)F (stereo not drawn) [Compound 67]
2. Cc1cc[n+]([O-])c(S(=O)(=O)C(Cl)c2c(C(F)(F)F)nn(C)c2OCC(F)(F)F)c1 (racemic) [Compound 37]
3. CCn1nc(C(F)(F)F)c(C[S+]([O-])c2cccc[n+]2[O-])c1OCC(F)(F)F (racemic) [Compound 65]

Response:
1. 100
2. 85
3. 100
